Test system: KRAS PDC multicell spheroid viability
Experiment Summary: Anticancer human tumor 521955-158-R6-J3-PDC patient-derived pancreatic carcinoma cell line growth inhibition [KRAS2]
Condition Description: curve of first compound; second compound 10 µM
Collected IC50 values appear next to each entry.

Here are 6 molecules together with their reported answers.
CN(C)C/C=C/C(=O)Nc1cc2c(Nc3ccc(F)c(Cl)c3)ncnc2cc1O[C@H]1CCOC1 + CNCc1ccccc1-c1csc(C(C)Nc2nc(C)nc3cc(OC)c(OC)cc23)c1 | < 0.316 nM
COC(=O)c1ccc2c(C(=Nc3ccc(N(C)C(=O)CN4CCN(C)CC4)cc3)c3ccccc3)c(O)[nH]c2c1 + C=CC(=O)N1CCN(c2nc(=O)n(-c3c(C)ccnc3C(C)C)c3nc(-c4c(O)cccc4F)c(F)cc23)C(C)C1 | 3770 nM
CC1OCC2(CCN(c3cnc(Sc4ccnc(N)c4Cl)c(N)n3)CC2)C1N (stereo unspecified) + C=CC(=O)N1CCN(c2nc(=O)n(-c3c(C)ccnc3C(C)C)c3nc(-c4c(O)cccc4F)c(F)cc23)C(C)C1 | > 10000 nM
CC(=O)Nc1cccc(-n2c(=O)n(C3CC3)c(=O)c3c(Nc4ccc(I)cc4F)n(C)c(=O)c(C)c32)c1 + COc1cc2nc(C)nc(NC(C)c3cc(N)cc(C(F)(F)F)c3)c2cc1OC1CCOC1 | < 0.1 nM
COc1cc(Nc2ncc3c(n2)-c2ccc(Cl)cc2C(c2c(F)cccc2OC)=NC3)ccc1C(=O)O + COc1cc2nc(C)nc(NC(C)c3cc(N)cc(C(F)(F)F)c3)c2cc1OC1CCOC1 | < 31.6 nM
CC(C)n1nc(-c2ccc3oc(N)nc3c2)c2c(N)ncnc21 + CNCc1ccccc1-c1csc(C(C)Nc2nc(C)nc3cc(OC)c(OC)cc23)c1 | < 0.316 nM

Q. Give the measured IC50 of CC(C)NCC(C(=O)N1CCN(c2ncnc3c2C(C)CC3O)CC1)c1ccc(Cl)cc1 (stereo unspecified) + C=CC(=O)N1CCN(c2nc(=O)n(-c3c(C)ccnc3C(C)C)c3nc(-c4c(O)cccc4F)c(F)cc23)C(C)C1 .
A. 683 nM

Q. Entry under review: COc1cc(Nc2ncc3c(n2)-c2ccc(Cl)cc2C(c2c(F)cccc2OC)=NC3)ccc1C(=O)O + C=CC(=O)N1CCN(c2nc(=O)n(-c3c(C)ccnc3C(C)C)c3nc(-c4c(O)cccc4F)c(F)cc23)C(C)C1 . Reported IC50?
A. > 10000 nM

Q. Which IC50 is reported for this molecule? COC(=O)c1ccc2c(C(=Nc3ccc(N(C)C(=O)CN4CCN(C)CC4)cc3)c3ccccc3)c(O)[nH]c2c1 + CC1OCC2(CCN(c3cnc(Sc4ccnc(N)c4Cl)c(N)n3)CC2)C1N
A. 1470 nM

Q. For the molecule Cn1ncnc1[C@H]1c2n[nH]c(=O)c3cc(F)cc(c23)N[C@@H]1c1ccc(F)cc1 + CC1OCC2(CCN(c3cnc(Sc4ccnc(N)c4Cl)c(N)n3)CC2)C1N , what IC50 is on record?
A. > 100 nM

Q. Look up IC50: CCNC(=O)CC1N=C(c2ccc(Cl)cc2)c2cc(OC)ccc2-n2c(C)nnc21 (stereo unspecified) + C=CC(=O)N1CCN(c2nc(=O)n(-c3c(C)ccnc3C(C)C)c3nc(-c4c(O)cccc4F)c(F)cc23)C(C)C1
A. 266 nM

----------
Test system: KRAS PDC multicell spheroid viability
Experiment Summary: Anticancer human tumor 521955-158-R6-J3-PDC cell line growth inhibition [KRAS2];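 note: drug exposure lasted seven days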;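 for viability, T/C: 100% = DMSO vehicle wells and lower means fewer viable cells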
Condition Description: second compound 0.316 µM; first compound 0.316 µM; stronger effect = lower value
Readout: viability, T/C (%)
State the answer as a number, implicitly in %.

CC(=O)OC12COC1CC(O)C1(C)C(=O)C(O)C3=C(C)C(OC(=O)C(O)C(NC(=O)OC(C)(C)C)c4ccccc4)CC(O)(C(OC(=O)c4ccccc4)C21)C3(C)C (stereo not drawn) + C=CC(=O)N1CCN(c2nc(OCC3CCCN3C)nc3c2CCN(c2cccc4cccc(C)c24)C3)CC1CC#N | 75.1

Q. # get_value(readout= viability, T/C, system= KRAS PDC multicell spheroid viability) for COC(=O)c1ccc2c(C(=Nc3ccc(N(C)C(=O)CN4CCN(C)CC4)cc3)c3ccccc3)c(O)[nH]c2c1 + C=CC(=O)N1CCN(c2nc(=O)n(-c3c(C)ccnc3C(C)C)c3nc(-c4c(O)cccc4F)c(F)cc23)C(C)C1
A. 120

Q. Provide value of viability, T/C for this record tested with KRAS PDC multicell spheroid viability: Cn1nccc1Nc1nccc(-c2cc3c(s2)C(C)(C)N(CCN2CCOCC2)C3=O)n1 + COc1cc2nc(C)nc(NC(C)c3cc(N)cc(C(F)(F)F)c3)c2cc1OC1CCOC1
A. 103

----------
Test system: KRAS PDC multicell spheroid viability
Experiment Summary: Anticancer human tumor 521955-158-R6-J3-PDC cell line growth inhibition [KRAS2];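 note: drug exposure lasted seven days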;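 for viability, T/C: 100% = DMSO vehicle wells and lower means fewer viable cells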
Condition Description: second compound 0.1 µM; first compound 0.000316 µM; stronger effect = lower value
Listed next: entries and their corresponding viability, T/C.
Express the result in % but write the number alone.

See these solved cases before continuing.
Cn1ncnc1[C@H]1c2n[nH]c(=O)c3cc(F)cc(c23)N[C@@H]1c1ccc(F)cc1 + C=CC(=O)N1CCN(c2nc(=O)n(-c3c(C)ccnc3C(C)C)c3nc(-c4c(O)cccc4F)c(F)cc23)C(C)C1 | 106
CC(C)n1nc(-c2ccc3oc(N)nc3c2)c2c(N)ncnc21 + C=CC(=O)N1CCN(c2nc(=O)n(-c3c(C)ccnc3C(C)C)c3nc(-c4c(O)cccc4F)c(F)cc23)C(C)C1 | 96.2
CC(C)n1nc(-c2ccc3oc(N)nc3c2)c2c(N)ncnc21 + C=CC(=O)N1CCN(c2nc(OCC3CCCN3C)nc3c2CCN(c2cccc4cccc(C)c24)C3)CC1CC#N | 90.8
CC(=O)Nc1cccc(-n2c(=O)n(C3CC3)c(=O)c3c(Nc4ccc(I)cc4F)n(C)c(=O)c(C)c32)c1 + COc1cc2nc(C)nc(NC(C)c3cc(N)cc(C(F)(F)F)c3)c2cc1OC1CCOC1 | 88.4

Q. Param item = CN(C)C/C=C/C(=O)Nc1cc2c(Nc3ccc(F)c(Cl)c3)ncnc2cc1O[C@H]1CCOC1 + COc1cc2nc(C)nc(NC(C)c3cc(N)cc(C(F)(F)F)c3)c2cc1OC1CCOC1 ; retrieve measured viability, T/C.
A. 89.3

Q. Item CN(C)C/C=C/C(=O)Nc1cc2c(Nc3ccc(F)c(Cl)c3)ncnc2cc1O[C@H]1CCOC1 + C=CC(=O)N1CCN(c2nc(=O)n(-c3c(C)ccnc3C(C)C)c3nc(-c4c(O)cccc4F)c(F)cc23)C(C)C1 has what recorded viability, T/C?
A. 101

----------
Test system: KRAS PDC multicell spheroid viability
Experiment Summary: Anticancer human tumor 521955-158-R6-J3-PDC cell line growth inhibition [KRAS2];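 note: drug exposure lasted seven days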;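 for viability, T/C: 100% = DMSO vehicle wells and lower means fewer viable cells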
Condition Description: second compound 0.1 µM; first compound 0.1 µM; stronger effect = lower value
Excerpt: Multicellular complex tumor spheroid response to RAS pathway inhibitors in combination with a targeted agents in patient-derived cell lines with oncogenic KRAS variants from multiple cancer types A high-throughput screen of multi-cell type tumor spheroids was designed to identify active combinations of targeted small molecules and KRAS pathway inhibitors. […] Compounds. […] If the clinical Cmax for an agent had not been determined, the highest concentration tested was 10 microM. […]
Threshold 90%: viability, T/C strictly smaller gives YES, otherwise NO.

COc1cc2nccc(Oc3ccc(NC(=O)C4(C(=O)Nc5ccc(F)cc5)CC4)cc3)c2cc1OC + C=CC(=O)N1CCN(c2nc(=O)n(-c3c(C)ccnc3C(C)C)c3nc(-c4c(O)cccc4F)c(F)cc23)C(C)C1 | NO
CC(C)n1nc(-c2ccc3oc(N)nc3c2)c2c(N)ncnc21 + CC1OCC2(CCN(c3cnc(Sc4ccnc(N)c4Cl)c(N)n3)CC2)C1N | YES
O=C(c1cc(Cc2n[nH]c(=O)c3ccccc23)ccc1F)N1CCN(C(=O)C2CC2)CC1 + C=CC(=O)N1CCN(c2nc(=O)n(-c3c(C)ccnc3C(C)C)c3nc(-c4c(O)cccc4F)c(F)cc23)C(C)C1 | NO

Next:
Q. Bench note: check whether CC1COCCN1c1cc(-c2ccnn2C)c2ccnc(-c3ccn[nH]3)c2n1 (stereo not given) + C=CC(=O)N1CCN(c2nc(OCC3CCCN3C)nc3c2CCN(c2cccc4cccc(C)c24)C3)CC1CC#N shows viability, T/C below 90%
A. YES

----------
Tested on: KRAS PDC multicell spheroid viability
Experiment Summary: Anticancer human tumor 521955-158-R6-J3-PDC cell line growth inhibition [KRAS2];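 note: drug exposure lasted seven days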;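 for viability, T/C: 100% = DMSO vehicle wells and lower means fewer viable cells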
Condition Description: second compound 3.16 µM; first compound 0.316 µM; stronger effect = lower value
Category | rule: reported viability, T/C within range, see bin A = under 0.6%, bin B = from 0.6% up to 80%, bin C = 80% and over

Worked cases, answers included:
Cn1nccc1Nc1nccc(-c2cc3c(s2)C(C)(C)N(CCN2CCOCC2)C3=O)n1 + COc1cc2nc(C)nc(NC(C)c3cc(N)cc(C(F)(F)F)c3)c2cc1OC1CCOC1 | bin C
COc1cc(Nc2ncc3c(n2)-c2ccc(Cl)cc2C(c2c(F)cccc2OC)=NC3)ccc1C(=O)O + C=CC(=O)N1CCN(c2nc(OCC3CCCN3C)nc3c2CCN(c2cccc4cccc(C)c24)C3)CC1CC#N | bin B
O=C(c1cc(Cc2n[nH]c(=O)c3ccccc23)ccc1F)N1CCN(C(=O)C2CC2)CC1 + CNCc1ccccc1-c1csc(C(C)Nc2nc(C)nc3cc(OC)c(OC)cc23)c1 | bin A
COc1cc(Nc2ncc3c(n2)-c2ccc(Cl)cc2C(c2c(F)cccc2OC)=NC3)ccc1C(=O)O + CNCc1ccccc1-c1csc(C(C)Nc2nc(C)nc3cc(OC)c(OC)cc23)c1 | bin A
CCN1CCN(Cc2ccc(Nc3ncc(F)c(-c4cc(F)c5nc(C)n(C(C)C)c5c4)n3)nc2)CC1 + CNCc1ccccc1-c1csc(C(C)Nc2nc(C)nc3cc(OC)c(OC)cc23)c1 | bin A
COC(=O)c1ccc2c(C(=Nc3ccc(N(C)C(=O)CN4CCN(C)CC4)cc3)c3ccccc3)c(O)[nH]c2c1 + CNCc1ccccc1-c1csc(C(C)Nc2nc(C)nc3cc(OC)c(OC)cc23)c1 | bin B

Q. Bin? CCNC(=O)CC1N=C(c2ccc(Cl)cc2)c2cc(OC)ccc2-n2c(C)nnc21 (stereo unspecified) + CNCc1ccccc1-c1csc(C(C)Nc2nc(C)nc3cc(OC)c(OC)cc23)c1
A. bin A

Q. Any idea which band COc1cc2nccc(Oc3ccc(NC(=O)C4(C(=O)Nc5ccc(F)cc5)CC4)cc3)c2cc1OC + CC1OCC2(CCN(c3cnc(Sc4ccnc(N)c4Cl)c(N)n3)CC2)C1N is in?
A. bin C

Q. Exam item: assign CC(=O)OC12COC1CC(O)C1(C)C(=O)C(O)C3=C(C)C(OC(=O)C(O)C(NC(=O)OC(C)(C)C)c4ccccc4)CC(O)(C(OC(=O)c4ccccc4)C21)C3(C)C (stereo unspecified) + COc1cc2nc(C)nc(NC(C)c3cc(N)cc(C(F)(F)F)c3)c2cc1OC1CCOC1 to the correct category.
A. bin B
